IC50 by entry:
system: NALM-6; test: cells; type: functional, cell-based; conditions: Homo sapiens;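 further: growth inhibition of NALM-6 cells, read out with a cell viability assay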
Description: SANGER: Inhibition of human NALM-6 cell growth in a cell viability assay.
Answer with a number only, understood to be in µM.

CCNc1cc(N[C@H]2CC[C@@H](O)CC2)nc(Nc2ccc3c(ccn3Cc3ccccc3)c2)n1	4.98
N#C/C(=C1/Nc2ccccc2S1)c1ccnc(NCCc2cccnc2)n1	4.49

API: the following record is the query input.
Data request, read-out IC50, for Cc1n[nH]c2ccc(-c3cncc(OC[C@@H](N)Cc4c[nH]c5ccccc45)c3)cc12
0.128

* * *

tested on: SNU-423; assay: cells; format: functional, cell-based; details: Homo sapiens
Description: SANGER: Inhibition of human SNU-423 cell growth in a cell viability assay.
Readout Name: pIC50
Quick note: pIC50 values are minus log10 of concentrations in mol/L.

Worked examples, 2 compounds total:
N#C/C(=C1/Nc2ccccc2S1)c1ccnc(NCCc2cccnc2)n1	5.64
CC[C@]1(O)C[C@@H]2CN(CCc3c([nH]c4ccccc34)[C@@](C(=O)OC)(c3cc4c(cc3OC)N(C)[C@H]3[C@@](O)(C(=O)OC)[C@H](OC(C)=O)[C@]5(CC)C=CCN6CC[C@]43[C@@H]65)C2)C1 [VINBLASTINE]	7.71

Data request, read-out pIC50, for NC(=O)c1ncn([C@@H]2O[C@H](COP(=O)(O)O)[C@@H](O)[C@H]2O)c1N
2.91

* * *

system: SK-UT-1; experiment: cells; assay type: functional, cell-based; settings: Homo sapiens;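 further: growth inhibition of SK-UT-1 cells, measured by a cell viability assay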
Description: SANGER: Inhibition of human SK-UT-1 cell growth in a cell viability assay.
Readout Name: pIC50
Quick note: pIC50 values are minus log10 of concentrations in mol/L.

C/C=C(/C)C(=O)O[C@H]1C(C)=C2[C@H]([C@@H]1OC(=O)CCCCCCC)[C@@](C)(OC(C)=O)C[C@H](OC(=O)CCC)[C@@]1(O)[C@H]2OC(=O)[C@@]1(C)O	7.63

Data request, read-out pIC50, for CC[C@]1(O)C[C@@H]2CN(CCc3c([nH]c4ccccc34)[C@@](C(=O)OC)(c3cc4c(cc3OC)N(C)[C@H]3[C@@](O)(C(=O)OC)[C@H](OC(C)=O)[C@]5(CC)C=CCN6CC[C@]43[C@@H]65)C2)C1
7.93

One more molecule: CO[C@@]12[C@H](COC(N)=O)C3=C(C(=O)C(C)=C(N)C3=O)N1C[C@@H]1N[C@@H]12
7.08

One more molecule: N#C/C(=C1/Nc2ccccc2S1)c1ccnc(NCCc2cccnc2)n1
5.12

* * *

IC50 by entry:
test system: NCI-H69; experiment: cells; format: functional, cell-based; settings: Homo sapiens
Description: SANGER: Inhibition of human NCI-H69 cell growth in a cell viability assay.
Answer with a number only, understood to be in µM.

CO[C@@]12[C@H](COC(N)=O)C3=C(C(=O)C(C)=C(N)C3=O)N1C[C@@H]1N[C@@H]12	1.68

API: the following record is the query input.
Short answer please: IC50, NCI-H69, entry Cc1n[nH]c2ccc(-c3cncc(OC[C@@H](N)Cc4c[nH]c5ccccc45)c3)cc12
0.318

* * *

system: HT-29; experiment: cells; format: functional, cell-based; conditions: Homo sapiens;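 further: growth inhibition of human HT-29 cells, read out by a cell viability assay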
Description: SANGER: Inhibition of human HT-29 cell growth in a cell viability assay.
IC50 by entry:
State the value, then name its unit.

Fc1cc(-c2cc[nH]/c(=N/c3ccc(-n4cnc(N5CCOCC5)n4)cc3)n2)cc(N2CCOCC2)c1	358 nM

Data request, read-out IC50, for CCNC(=O)c1noc(-c2cc(C(C)C)c(O)cc2O)c1-c1ccc(CN2CCOCC2)cc1 [LUMINESPIB]
43.6 nM

One more compound: CC[C@]1(O)C[C@@H]2CN(CCc3c([nH]c4ccccc34)[C@@](C(=O)OC)(c3cc4c(cc3OC)N(C)[C@H]3[C@@](O)(C(=O)OC)[C@H](OC(C)=O)[C@]5(CC)C=CCN6CC[C@]43[C@@H]65)C2)C1 [VINBLASTINE]
45.9 nM
